Data provenance: the supplement of paper PMC6897291

Below, each of the compounds is paired with its reported growth inhibition by drug alone value.
Tested on: RIVA
ASSAY_PROTOCOL: growth inhibition by drug alone (1 - RLU/untreated control) (fraction); higher = stronger inhibition
STUDY_CONDITIONS: 10 nM; time (day): 6; 177Lu-lilotomab satetraxetan 0 ug/ml
Form field (numeric): enter value without unit.

Documented growth inhibition by drug alone of CN(C)c1nc(N(C)C)nc(N(C)C)n1 [Altretamine (Hexalen)] : -0.318

Input Cc1ccc(S(=O)(=O)C=CC#N)cc1 . Output growth inhibition by drug alone: -0.287

Consider Cc1c(C(=O)Nc2ccc(N3C[C@@H](C)O[C@@H](C)C3)nc2)cccc1-c1ccc(OC(F)(F)F)cc1 [LDE225 (NVP-LDE225, Erismodegib)] . Its measured growth inhibition by drug alone is -0.419

Measured growth inhibition by drug alone, C[C@@H]1CN(CC(=O)Nc2ccc3c(c2)Cc2cccc(-c4cc(=O)cc(N5CCOCC5)o4)c2S3)C[C@H](C)O1 : -0.417

Memo: C#CCN(C)CC1=Cc2ccccc2Oc2ccccc21 , reported growth inhibition by drug alone: -0.145

Sure, the documented growth inhibition by drug alone for CCC(CC)CC1(C(=O)Nc2ccccc2SC(=O)C(C)C)CCCCC1 is -0.174

Per the records, this compound ( C[C@@H](Oc1cc(-c2cnn(C3CCNCC3)c2)cnc1N)c1c(Cl)ccc(F)c1Cl ) has growth inhibition by drug alone equal to -0.409

So for O=C(O)c1ccc2c(c1)nc(Nc1cccc(Cl)c1)c1ccncc12 [cx-4945 (Silmitasertib)] , the logged growth inhibition by drug alone turned out to be -0.291
